# target.or.system: murine free Hb (Mus musculus, UniProt P01942+P02088)
# Sequence (P01942 2-142 limits assumed): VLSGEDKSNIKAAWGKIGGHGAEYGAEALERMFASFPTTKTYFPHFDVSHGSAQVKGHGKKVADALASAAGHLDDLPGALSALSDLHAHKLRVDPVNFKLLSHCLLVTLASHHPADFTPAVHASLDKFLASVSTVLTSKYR
# Sequence (P02088 2-147 limits assumed): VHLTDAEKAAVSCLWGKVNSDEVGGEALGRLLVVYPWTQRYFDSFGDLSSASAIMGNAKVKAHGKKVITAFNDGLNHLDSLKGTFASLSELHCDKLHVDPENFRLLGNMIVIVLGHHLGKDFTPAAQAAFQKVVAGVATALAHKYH
# test.summary: P50 of murine free Hb after incubation with compound (HEMOX analyzer)
# Assay type: biochemical
# details: murine free Hb; compound solution 60 mM
readout.type: P50 (Torr) Hb + compound
Lab book: enter the figure in Torr, no units written.

Consider the worked cases shown below.
molecule	measured.number
O=P1([O-])OP(=O)([O-])O[C@H]2[C@H](O1)[C@@H]1OP(=O)([O-])OP(=O)([O-])O[C@@H]1[C@H]1OP(=O)([O-])OP(=O)([O-])O[C@H]21.[Ca+2].[Ca+2].[Ca+2] (racemic) [Compound 15]	61.9
O=P1([O-])OP(=O)([O-])O[C@H]2[C@H](O1)[C@@H]1OP(=O)([O-])OP(=O)([O-])O[C@@H]1[C@H]1OP(=O)([O-])OP(=O)([O-])O[C@H]21.[Na+].[Na+].[Na+].[Na+].[Na+].[Na+] (racemic) [Compound 5]	69.7

Problem: What value of measured P50 (Torr) Hb + compound is listed for NC1CCCCCC1.NC1CCCCCC1.NC1CCCCCC1.NC1CCCCCC1.NC1CCCCCC1.NC1CCCCCC1.O=P1(O)OP(=O)(O)O[C@H]2[C@H](O1)[C@@H]1OP(=O)(O)OP(=O)(O)O[C@@H]1[C@H]1OP(=O)(O)OP(=O)(O)O[C@H]21 (racemic) [Compound 11, cycloheptyl ammonium salt of ITPP] ?
Solution: 43.8
